# Tgt: ligand binding domain of human RORγ (A262-S507) (Homo sapiens)
# Construct: made in house; host or cells: E. coli
# Experimental Protocol: General RORγ SPA binding assay (competition with [3H]25-hydroxycholesterol)
# Test Context: RORγ SPA binding assay, inhibition of [3H]25-hydroxycholesterol binding; read-out: IC50
log10 of IC50 values for the compounds below.
Recorded Endpoint: log10 of IC50 (log10 of the value in nM)

[[record]]
compound = "Cc1nc(C)c(C(=O)NCc2ccnc(C(F)(F)F)n2)c(C2CCN(C(=O)Nc3c(F)cccc3F)CC2)n1"
tgt = "ligand binding domain of human RORγ (A262-S507) (Homo sapiens)"
recorded_endpoint = "log10 of IC50"
readout_value = 2.06

[[record]]
compound = "Cc1cc(C)cc(CNC(=O)c2cnc(C)nc2C2CCN(C(=O)Cc3c(F)cccc3F)CC2)c1"
tgt = "ligand binding domain of human RORγ (A262-S507) (Homo sapiens)"
recorded_endpoint = "log10 of IC50"
readout_value = 0.67

[[record]]
compound = "Cc1cc(C)cc(CCCc2cnc(C)nc2C2CCN(C(=O)Cc3c(F)cccc3F)CC2)c1"
tgt = "ligand binding domain of human RORγ (A262-S507) (Homo sapiens)"
recorded_endpoint = "log10 of IC50"
readout_value = 0.89

[[record]]
compound = "COc1nc(C)nc(C2CCN(C(=O)Cc3c(F)cccc3F)CC2)c1C(=O)NCc1cccc(Cl)c1"
tgt = "ligand binding domain of human RORγ (A262-S507) (Homo sapiens)"
recorded_endpoint = "log10 of IC50"
readout_value = 0.99

[[record]]
compound = "O=C(NCc1ccc(Cl)c(Cl)c1)c1cnc(C(F)(F)F)nc1C1CCN(C(=O)Cc2c(F)cccc2F)CC1"
tgt = "ligand binding domain of human RORγ (A262-S507) (Homo sapiens)"
recorded_endpoint = "log10 of IC50"
readout_value = 2.32

[[record]]
compound = "Cc1nc(N)nc(C2CCN(C(=O)Oc3ccccc3F)CC2)c1-c1nnc(-c2ccnc(C(F)(F)F)n2)o1"
tgt = "ligand binding domain of human RORγ (A262-S507) (Homo sapiens)"
recorded_endpoint = "log10 of IC50"
readout_value = 0.94

[[record]]
compound = "Cc1ncc(C(N)(COc2cccc(C(F)(F)F)n2)C(N)=O)c(C2CCN(C(=O)Nc3c(F)cccc3F)CC2)n1 (stereo not shown)"
tgt = "ligand binding domain of human RORγ (A262-S507) (Homo sapiens)"
recorded_endpoint = "log10 of IC50"
readout_value = 2.25


---

# Tgt: ligand binding domain of human RORγ (A262-S507) (Homo sapiens)
# Construct: made in house; host or cells: E. coli
# Experimental Protocol: General RORγ SPA binding assay (competition with [3H]25-hydroxycholesterol)
# Test Context: RORγ SPA binding assay, inhibition of [3H]25-hydroxycholesterol binding; read-out: IC50
# Protocol: Example 2 General RORγ SPA Binding Assay The binding of potential ligands to RORγ is measured by competition with [^3H]25-hydroxycholesterol using a scintillation proximity assay (SPA) binding assay. […] The reaction is read on a MicroBeta Trilux scintillation plate reader (Perkin Elmer). IC50 values are determined from the percentage inhibition of [^3H]25-hydroxycholesterol binding.
pIC50: −log10 of the molar value.
Recorded Endpoint: pIC50

[[record]]
molecule = "Cc1nc(C)c(-c2nnc(-c3ccnc(C(F)(F)F)n3)o2)c(C2CCN(C(=O)c3c(F)cccc3F)CC2)n1"
recorded_endpoint = "pIC50"
readout_value = 6.56

[[record]]
molecule = "Cc1ncc(C(O)(CN=[N+]=[N-])COc2cccc(C(F)(F)F)n2)c(C2CCN(C(=O)Nc3c(F)cccc3F)CC2)n1 (stereo not shown)"
recorded_endpoint = "pIC50"
readout_value = 8.54

[[record]]
molecule = "Cc1ncc(C(C)(CO)CNc2ccnc(C(F)(F)F)n2)c(C2CCN(C(=O)Cc3c(F)cccc3F)CC2)n1 (stereo not shown)"
recorded_endpoint = "pIC50"
readout_value = 6.99

[[record]]
molecule = "Cc1ncc(C(=O)NCc2cccc(C(F)(F)F)n2)c(C2(F)CCN(C(=O)Cc3c(F)cccc3F)CC2)n1"
recorded_endpoint = "pIC50"
readout_value = 6.64

[[record]]
molecule = "Cc1nc(C2CCN(C(=O)Cc3c(F)cccc3F)CC2)c(C(=O)NCc2ccnc(C(F)(F)F)c2)c(=O)[nH]1"
recorded_endpoint = "pIC50"
readout_value = 7.16

[[record]]
molecule = "CCc1ncc(C(=O)NCc2cc(C)cc(C)c2)c(C2CCN(C(=O)Cc3c(F)cccc3F)CC2)n1"
recorded_endpoint = "pIC50"
readout_value = 7.19

[[record]]
molecule = "Cc1ncc(C(=O)NNc2cccc(Cl)c2)c(C2CCN(C(=O)Cc3c(F)cccc3F)CC2)n1"
recorded_endpoint = "pIC50"
readout_value = 8.02


---

Each entry below lists one item and its recorded IC50 value.
# Tgt: ligand binding domain of human RORγ (A262-S507) (Homo sapiens, UniProt P51449)
# Construct: made in house; host or cells: E. coli
# Sequence (P51449 262-507): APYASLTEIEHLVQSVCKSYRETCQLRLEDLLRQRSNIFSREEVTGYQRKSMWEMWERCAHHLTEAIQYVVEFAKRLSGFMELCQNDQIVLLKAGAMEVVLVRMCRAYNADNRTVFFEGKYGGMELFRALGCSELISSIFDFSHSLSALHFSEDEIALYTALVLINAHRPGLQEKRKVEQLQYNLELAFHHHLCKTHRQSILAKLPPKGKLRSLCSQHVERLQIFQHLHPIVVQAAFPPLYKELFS
# Experimental Protocol: General RORγ SPA binding assay (competition with [3H]25-hydroxycholesterol)
# Test Context: RORγ SPA binding assay, inhibition of [3H]25-hydroxycholesterol binding; read-out: IC50
Recorded Endpoint: IC50 (nM)

[[record]]
compound = "CC(=O)NCC(O)(COc1cccc(C(F)(F)F)n1)c1cnc(C)nc1C1CCN(C(=O)Oc2c(F)cccc2F)CC1 (stereo not shown) [Compound N47]"
readout_value = 3.6

[[record]]
compound = "Cc1ncc(C(C)(C)CNc2ccnc(C(F)(F)F)n2)c(C2CCN(C(=O)Cc3c(F)cccc3F)CC2)n1 [Compound F1]"
readout_value = 76

[[record]]
compound = "Cc1nc(C)c(C(=O)NCc2ccnc(C#N)c2)c(C2CCN(C(=O)Cc3c(F)cccc3F)CC2)n1 [Compound A83]"
readout_value = 45.8

[[record]]
compound = "Cc1nc(C2CCN(C(=O)Cc3c(F)cccc3F)CC2)c(C(=O)NCc2cccc(C(F)(F)F)n2)c(=O)[nH]1 [Compound I1]"
readout_value = 40.3

[[record]]
compound = "Cc1ncc(C(C)(C)OCc2cccc(Cl)n2)c(C2CCN(C(=O)Cc3c(F)cccc3F)CC2)n1 [Compound E7]"
readout_value = 63

[[record]]
compound = "C/C(=N\\Oc1cccc(C)c1)c1cnc(C)nc1C1CCN(C(=O)Cc2c(F)cccc2F)CC1 [Compound B11]"
readout_value = 1.7

[[record]]
compound = "COc1ncc(C(O)COc2cccc(C(F)(F)F)n2)c(C2CCN(C(=O)Nc3c(F)cccc3F)CC2)n1 (stereo not shown) [Compound N4]"
readout_value = 12.1


---

Quick reference for IC50 among some compounds
# Tgt: ligand binding domain of human RORγ (A262-S507) (Homo sapiens, UniProt P51449)
# Construct: made in house; host or cells: E. coli
# Experimental Protocol: General RORγ SPA binding assay (competition with [3H]25-hydroxycholesterol)
# Test Context: RORγ SPA binding assay, inhibition of [3H]25-hydroxycholesterol binding; read-out: IC50
Recorded Endpoint: IC50

[[record]]
compound = "Cc1nc(C)c(C(=O)NCc2cccc(Cl)c2)c(C2CCN(C(=O)Cc3c(F)cccc3F)CC2)n1 [Compound A81]"
readout_value = "5.2 nM"

[[record]]
compound = "Cc1ncc(C(C)(O)CNc2cc(C(F)(F)F)ccn2)c(C2CCN(C(=O)Cc3c(F)cccc3F)CC2)n1 (stereo not shown) [Compound D8]"
readout_value = "105 nM"

[[record]]
compound = "Nc1ncc(C(=O)COc2ccnc(C(F)(F)F)n2)c(C2CCN(C(=O)Cc3c(F)cccc3F)CC2)n1 [Compound M5]"
readout_value = "16.3 nM"

[[record]]
compound = "Cc1nc(C)c(/C=N/Oc2cccc(C(F)(F)F)c2)c(C2CCN(C(=O)Nc3c(F)cccc3F)CC2)n1 [Compound B46]"
readout_value = "106 nM"

[[record]]
compound = "C/C(=N\\Oc1cccc(C(F)(F)F)c1)c1cnc(C)nc1C1CCN(C(=O)Nc2c(F)cccc2F)C(C)C1 (stereo not shown) [Compound B47]"
readout_value = "76.4 nM"

[[record]]
compound = "Cc1cc(C)cc(COC(C)(COC[C@H](O)CO)c2cnc(C)nc2C2CCN(C(=O)Cc3c(F)cccc3F)CC2)c1 (stereo in doubt) [Compound E8]"
readout_value = "4.1 nM"

[[record]]
compound = "Cc1ncc(C(=O)NCc2cccc(Cl)c2F)c(C2CCN(C(=O)Cc3c(F)cccc3F)CC2)n1 [Compound A54]"
readout_value = "13.9 nM"

